- experimental details: Hit confirmation in dose-response curve in HepG2 cytotoxicity assay, at 72h
- Type: toxicity, cell-based
- Set-up: timepoint 72 hour
- reported conditions: human, HepG2 cells
IC50 at 72 h by entry:

1. Cc1noc(C)c1CN1C[C@@H]2Oc3cc(F)ccc3C(=O)N(C)[C@@H]2C1    > 10 µM

[Q] Given the entry S=c1cc(-c2ccccc2)n(Cc2ccco2)c2c1CCCC2 , report its measured IC50 at 72 h.
[A] > 10 µM

[Q] Name the reported IC50 at 72 h value associated with the compound O=C(Cc1ccc(N(Cc2cccc(F)c2)C(=O)C2CCCC2)cc1)NCCN1CCCC1
[A] > 10 µM

[Q] Recorded IC50 at 72 h of NC(=O)C1CCN(CCC(=O)N2CCc3cc4ccc3[C@@H]2c2cccc(c2)OCCCNC(=O)c2cc(ccc2O)O4)CC1 , please.
[A] > 10 µM

[Q] Entry COc1ccc(CNCc2ccc(C)cc2)cc1Cn1ccnc1 has what IC50 at 72 h?
[A] > 10 µM

* * *

log10(IC50) by entry:
- Tested on: Plasmodium falciparum
- experimental details: Hit confirmation in dose-response curve in NF54 pLDH assay, at 72h
- Type: functional, organism-based
- Design: timepoint 72 hour
- reported conditions: NF54, Erythrocyte
Note the log scale: values are log10 of IC50 expressed in µM.

Past entries and their recorded results:
1. c1ccc(C(c2ccccc2)N2CCN(c3nn4cnnc4c4ccccc34)CC2)cc1    0.51
2. Cc1nn(C(C)(C)C)c2nc(C3CC3)cc(C(=O)N(C)c3ccccc3)c12    0.37
3. Cc1cnccc1NCCNC1CCN(c2ccc(Cl)cc2)CC1    -0.44

[Q] Fill in: log10(IC50) of Cc1ccc(-c2c[n+](-c3ccc(OC(F)F)cc3)c3n2CCCCC3)cc1 is ___
[A] 0.22

[Q] Look at this molecule and give its reported log10(IC50). COc1cc(C(=O)Nc2ccc3sc(NC(=O)c4cc(OC)c(OC)c(OC)c4)nc3n2)cc(OC)c1OC
[A] 0.47

[Q] // log10(IC50) lookup, key: Cc1cccc2ncnc(N(C)[C@@H](C)Cc3ccc(O)cc3)c12
[A] 0.49

[Q] Which log10(IC50) value is on record for Fc1ccccc1N1CCN(C2CCN(Cc3c[nH]c4ccccc34)CC2)CC1 ?
[A] 0.61

[Q] Report log10(IC50) for Cc1noc(Cl)c1CC(=O)N1CCCC(C)(C)CC1 please.
[A] 0.75

[Q] Item under review: COc1ccccc1C(=O)NC1=NN2C(=NC(c3ccc(Cl)cc3)=C[C@H]2c2ccc(Cl)cc2)N1 . Reported log10(IC50)?
[A] 0.44

[Q] Which log10(IC50) reading was recorded for the molecule CCC1=Nc2ccccc2N=C(NC(=O)C(C)C)[C@H]1c1ccc(F)cc1 ?
[A] 0.86

* * *

- Tested on: Plasmodium falciparum
- experimental details: Hit confirmation in dose-response curve in NF54 nanoGlo assay, at 72h
- Format: functional, organism-based, Erythrocyte
- Design: timepoint 72 hour
- reported conditions: Plasmodium falciparum, NF54, Erythrocyte, 72 h
assay readout: IC50 (nM)
A number alone suffices; assume nM.

[Q] Consider the compound shown here: COc1ccc(CC(=O)Nc2cc(C)n(-c3cccc(Cl)c3)n2)cc1 What is its recorded IC50?
[A] 1550

[Q] Would you mind telling me what IC50 value was observed for CCc1cccc(NC(=O)N2CCN(C3=CC4=NC[C@H](C)N4C=N3)CC2)c1 ?
[A] 3090

[Q] I would be grateful if you could share the reported IC50 for COc1ccc(-[n+]2c(-c3ccccc3)cn3c2CCC3)cc1 .
[A] 794

[Q] Can you share its IC50? I mean this compound: CC(C)O[C@@H]1CCN(C[C@H](O)c2ccc(C(F)(F)F)cc2)C1
[A] 2090

[Q] Fill in: IC50 of NC(=O)c1ccccc1NC(=O)C1CCN(c2cc(C3CC3)ncn2)CC1 is ___
[A] 2040

[Q] Any idea what its IC50 is? The compound is CN(C)CCN(C)c1ccc(Br)cc1NCc1cncn1C
[A] 2000

[Q] State the recorded IC50 for this entry: COc1ccc(-c2cc(C(=O)N[C@H]3CCN(c4ccc(=O)n(C)n4)C3)c(C)n2C)cc1
[A] 1050

[Q] IC50 for CCCCCn1c(NCc2cc(Cl)ccc2O)nc2ccccc21 ?
[A] 3630

[Q] Item CCOC(=O)c1c(CN2CCCC2)n(C)c2cc(-c3cccnc3)c(O)c(Cn3ccnc3)c12 has what recorded IC50?
[A] 145

* * *

Each entry below lists one item and its recorded pIC50 value.
- Test system: Plasmodium falciparum
- experimental details: Hit confirmation in dose-response curve in NF54 nanoGlo assay, at 72h
- Type: functional, organism-based, Erythrocyte
- Parameters: timepoint 72 hour
- reported conditions: Plasmodium falciparum, NF54, Erythrocyte, 72 h
Conceptually, pIC50 converts a concentration in mol/L into minus its log10.

Recorded pIC50, per entry:
1) COc1ccc(CCNc2nc(-c3ccc(OC)cc3F)c3c(N)n(-c4ccc(Cl)cc4)nc3n2)cc1    5.45
2) CC(C)c1cc(=O)[nH]c(-n2nc(C3CC3)cc2NC(=O)c2ccc(F)cc2)n1    6.15
3) CCOc1ccc(-[n+]2cc(-c3ccccc3)n3c2CCC3)cc1    6.08
4) O=C(N[C@@H]1CN(Cc2ccccn2)CCC[C@H]1O)c1ccc(OCc2ccccc2)cc1    5.61
5) COc1cccc(-c2nc(C)c(C(=O)Nc3n[nH]c(CC(C)C)n3)s2)c1    6.17
6) CC[N+](C)(CC)CCOc1cc(C)c2ccccc2n1    5.65
7) CN1CCCN(c2ccnc3ccsc23)CC1    5.53
8) CCn1cnc2c(N3CCC[C@H](c4ccncc4)C3)ncnc21    6.00

[Q] I would be grateful if you could share the reported pIC50 for Cc1cc(=O)[nH]c(-n2nc(C3CC3)cc2NC(=O)C(C)(C)Oc2ccc(Cl)cc2)n1 .
[A] 5.96

[Q] State the recorded pIC50 for this entry: CCCCN(CC)CCNC(=O)C1CCN(C2=NS(=O)(=O)C(c3ccc(OC)cc3)=C2C)CC1
[A] 5.52

[Q] State the recorded pIC50 for this entry: COc1cccc(S(=O)(=O)N2CCCN(Cc3ccncc3)[C@H](c3ccccc3)CC(=O)NCC2)c1
[A] 6.03

[Q] If you can, please state the reported pIC50 value of COc1ccc(OC)c(NC(=O)CN2CCc3[nH]c4ccc(F)cc4c(=O)c3C2)c1 .
[A] 5.08

[Q] So what does the record say about pIC50 for CCCOc1ccc(Nc2cc(C)nc3ccc(Cl)cc23)cc1 ?
[A] 5.54

[Q] What measured pIC50 goes with CCC(=O)N1CCc2sc(S(=O)(=O)N3CCN(c4cc(C)ccc4C)CC3)cc2C1 ?
[A] 5.23

[Q] Give its pIC50 value. Item: CN1CCC(N2CCC(CN(Cc3ccncc3)Cc3c(F)cccc3Cl)CC2)CC1
[A] 6.15

[Q] If you can, please state the reported pIC50 value of O=S(=O)(c1ccc(Cl)s1)N1CCC(N2CCc3sccc3C2)CC1 .
[A] 5.46

[Q] Please look up its pIC50: Cc1ccc(S(=O)(=O)Nc2c(S(=O)(=O)c3ccc(C)cc3)c3nc4ccccc4nc3n2CCC(C)C)cc1
[A] 5.60

[Q] Look up pIC50: CCC1=C(c2ccc(C)cc2)S(=O)(=O)N=C1N1CCC(C(=O)NCCN2CCCC[C@@H]2C)CC1
[A] 5.57

[Q] // returns reported pIC50 for input O=C1c2ccccc2C(c2ccc(NC(=O)c3cccc4ccccc34)cc2)(c2ccc(NC(=O)c3cccc4ccccc34)cc2)c2ccccc21
[A] 6.06

[Q] pIC50 for Nc1nc(C2CC(N)C2)cc(N2CCC(Oc3ccccc3Cl)CC2)n1 (stereo not given) ?
[A] 5.74

[Q] For the compound Cc1ccc(N2C(=O)C[C@]3(CC3(c3ccccc3)c3ccccc3)C2=O)cc1 , what pIC50 is on record?
[A] 5.82

[Q] Which measured pIC50 value corresponds to FC(F)(F)C1CN(c2nc(-c3ccccn3)nc3c2CCC3)C1 ?
[A] 5.89

[Q] Query: pIC50; subject: O=C(N[C@@H](CN1CCCC1)c1ccccc1)N1CCC(c2ccn[nH]2)CC1
[A] 5.42

[Q] Please report the recorded pIC50 for CCCN(CCC)CCN1C(=O)[C@@H]2C(C(=O)Nc3cc(Cl)cc(Cl)c3)[C@@H]3C=C[C@]2(O3)C1C(=O)NC1CCCCC1 (stereo not given in full) .
[A] 5.60

[Q] # input compound: O=C(Cc1ccc(N(Cc2cccc(F)c2)C(=O)C2CCCC2)cc1)NCCN1CCCCC1 ; wanted: its pIC50
[A] 6.30

[Q] Please give the measured pIC50 for this compound: COc1cc(OC)cc(C(=O)Nc2ccc3nc(N4CCC(C)CC4)cc(C)c3c2)c1
[A] 5.50

[Q] // pIC50 lookup, key: COc1c2c(cc3c1[C@@H](C#CCOc1ccccc1)[N+](C)(C)CC3)OCO2
[A] 5.78

[Q] If you can, please state the reported pIC50 value of Clc1ccc(COc2ccc(Cl)cc2CNCCCn2ccnc2)c(Cl)c1 .
[A] 5.85

[Q] Look up pIC50: O=C(Nc1nncs1)c1cccc(C(=O)Nc2nncs2)n1
[A] 5.71
